# ASSAY_EXPLANATION: Selectivity index, ratio of IC50 for TCPTP to PTP1B
QUANTITY_NAME: Ratio IC50

> print(dat)
                         structure.notation  quantity.name  meas.value
1  C[C@H](CCC(=O)O)[C@H]1CC[C@H]2[C@@H]3CC=C4C(C)(C)c5nc(N)ncc5C[C@]4(C)[C@H]3CC[C@]12C     Ratio IC50           5
2  C[C@H](CCC(=O)O)[C@H]1CC[C@H]2[C@@H]3CC=C4C(C)(C)c5[nH]nc(C(=O)O)c5C[C@]4(C)[C@H]3CC[C@]12C     Ratio IC50         0.9

Give Ratio IC50 for each listed item.
1. COC(=O)CC[C@@H](C)[C@H]1CC[C@H]2[C@@H]3CC=C4C(C)(C)c5nc(N)sc5C[C@]4(C)[C@H]3CC[C@]12C
2. COC(=O)CC[C@@H](C)[C@H]1CC[C@H]2[C@@H]3CC=C4C(C)(C)C(=O)CC[C@]4(C)[C@H]3CC[C@]12C
3. O=C(O)C(=O)c1ccc(OCc2ccc(COc3ccc(C(=O)C(=O)O)cc3)cc2)cc1
4. COC(=O)CC[C@@H](C)[C@H]1CC[C@H]2[C@@H]3CC=C4C(C)(C)c5nccnc5C[C@]4(C)[C@H]3CC[C@]12C
5. C[C@H](CCC(=O)O)[C@H]1CC[C@H]2[C@@H]3CC=C4C(C)(C)c5nnsc5C[C@]4(C)[C@H]3CC[C@]12C

Found:
1: > 4.4; 2: > 3.8; 3: 1.6; 4: > 1.4; 5: 0.9
